biological target: Dimer of Gag-Pol polyprotein [489-587] (Human immunodeficiency virus 1); construct: 489-587; experiment: Protease Inhibition Assay; conditions: pH 5.5; 25 °C
Form field: IC50 (one value per entry).

{"columns": ["compound", "IC50"],
 "data": [
  ["O=C(N[C@@H](Cc1cccc(Br)c1)[C@H](O)C[C@H](CCc1ccc(Cl)cc1Cl)S(=O)(=O)c1ccc(F)cc1)[C@H]1CCCO1", "4.2 µM"],
  ["O=C(N[C@H](Cc1cccc(Br)c1)[C@@H](O)C[C@@H](CCc1ccc(Cl)cc1Cl)S(=O)(=O)c1ccc(F)cc1)[C@H]1CCCO1", "> 40 µM"]
]}

# next compound below
Case `CC(C)CCS(=O)(=O)[C@@H](C)C[C@@H](O)[C@H](Cc1cccc(Br)c1)NC(=O)CCS(C)(=O)=O` , Dimer of Gag-Pol polyprotein [489-587] (Human immunodeficiency virus 1), IC50 recorded as > 40 µM
